- Assay system: CYP3A4 (Homo sapiens, UniProt P08684)
- Construct: from tissue; host or cells: pooled human liver microsomes
- Sequence (P08684 whole entry): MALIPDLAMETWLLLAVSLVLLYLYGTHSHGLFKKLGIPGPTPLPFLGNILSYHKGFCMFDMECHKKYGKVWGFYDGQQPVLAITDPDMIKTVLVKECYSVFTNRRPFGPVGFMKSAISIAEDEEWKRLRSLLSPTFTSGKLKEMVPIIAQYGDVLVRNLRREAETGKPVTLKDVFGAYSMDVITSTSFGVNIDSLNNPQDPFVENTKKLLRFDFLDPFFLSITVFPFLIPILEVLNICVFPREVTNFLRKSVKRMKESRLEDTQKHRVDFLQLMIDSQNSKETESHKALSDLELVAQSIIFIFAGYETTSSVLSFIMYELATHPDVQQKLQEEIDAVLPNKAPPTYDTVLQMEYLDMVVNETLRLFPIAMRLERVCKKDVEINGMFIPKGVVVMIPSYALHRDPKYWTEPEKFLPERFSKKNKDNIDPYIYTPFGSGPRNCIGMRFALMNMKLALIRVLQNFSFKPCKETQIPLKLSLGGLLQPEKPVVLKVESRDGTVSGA
- Assay procedure: CYP450 Inhibition Assay 2 (pooled human liver microsomes, 5 concentrations)
- Format: in vitro ADME
- Test conditions: Table 3; HLM 0.05 mg protein/mL, 10 min reaction
Reported property: IC50 (µM)
Record the value in µM, omitting the unit from your answer.

Entry CC1=C(Cc2cc(C(F)(F)F)ccn2)C(=O)c2ccccc2C1=O [Example 9] , IC50 reported as 37.2

Entry O=C1C(Cc2ccc(C(F)(F)F)cn2)=C(C2CC2)C(=O)c2ccccc21 [Example 27] , IC50 reported as 11.9

Entry CCCC1=C(Cc2ccc(C(F)(F)F)cn2)C(=O)c2ccccc2C1=O [Example 109] , IC50 reported as 15.6

Entry CC1(C2=C(Cc3ccc(C(F)(F)F)cn3)C(=O)c3ccccc3C2=O)CC1 [Example 31] , IC50 reported as 17.4

Entry CCN(C(=O)c1ccc(CC2=C(C)C(=O)c3ccccc3C2=O)nc1)C(C)C [Example 102] , IC50 reported as 8.8
